- Test system: TK-10
- assay.overview: NCI tumour cell line growth inhibition, 48 h
Calls of active or inactive are those of the source. Rule as the data show it: active = GI50 up to about 1.1 µM and inactive = higher. Where a SMILES comes first, the peptide text is derived from it. Peptide text beside a SMILES is read from it. [ ]: non-standard residue; d: D form. The star is where a group is joined. * marks the point of attachment. Bn2Val = CC(C)[C@@H](C(=O)*)N(Cc1ccccc1)Cc1ccccc1; NHPiperonyl = c1cc2c(cc1CN*)OCO2; NMeV = CN[C@H](C(=O)O)C(C)C; dNMeA = CN[C@H](C)C(=O)O; Boc = CC(C)(C)OC(=O)*; OSu = O=C1CCC(=O)N1O*; Bn = c1ccc(C*)cc1
Overview of recorded GI50 for various compounds
measured.attribute: GI50

INSERT INTO results (compound, measured_attribute, test_value) VALUES
  ('O=C1CSC(/C=C/c2ccccc2)N1c1ccc(-c2ccc(-n3c(-c4ccccc4)nc4ccccc4c3=O)cc2)cc1 (stereo unspecified)', 'GI50', '39.5 µM (inactive)'),
  ('COC1=CC(=O)C2C(C1=O)C(c1ccc(OC)c(OC)c1)[C@H]2C (stereo partly specified)', 'GI50', '19 µM (inactive)'),
  ('Cc1c2oc(=O)c(C#N)cc2c2ccccn12', 'GI50', '> 100 µM (inactive)'),
  ('CC1CN(CCO)CC(C)O1 (stereo unspecified)', 'GI50', '> 100 µM (inactive)'),
  ('CC(C)[C@H](NC(=O)[C@H](C(C)C)N(Cc1ccccc1)Cc1ccccc1)C(=O)N(C)[C@H](C(=O)N1CCC[C@H]1C(=O)N(C)[C@H](C)C(=O)NCc1ccc2c(c1)OCO2)C(C)C (Bn2Val-V[NMeV]P[dNMeA]-NHPiperonyl)', 'GI50', '18.3 µM (inactive)'),
  ('C[N+](C)([O-])CCCNc1ccnc2cccc([N+](=O)[O-])c12', 'GI50', '24.9 µM (inactive)'),
  ('CC12CCC(C(=O)O1)C(C)(C)O2 (stereo unspecified)', 'GI50', '> 100 µM (inactive)'),
  ('COc1ccc(-c2nc(SCC(=O)NNC(=S)Nc3ccccc3)[nH]c2-c2ccc(OC)cc2)cc1', 'GI50', '40.6 µM (inactive)'),
  ('O=C(O)CSc1nnc(/C=C/c2ccccc2)[nH]1', 'GI50', '> 100 µM (inactive)'),
  ('N#Cc1cccc(C2C(=O)c3ccc(C(=O)c4ccc5c(c4)C(=O)N(c4ccc(Oc6ccc(N7C(=O)c8ccc(C(=O)c9ccc%10c(c9)C(=O)N(c9cccc(C#N)c9)C%10=O)cc8C7=O)cc6)cc4)C5=O)cc3C2=O)c1 (stereo unspecified)', 'GI50', '40.2 µM (inactive)'),
  ('C#CC1(OC(C)=O)CCC2C3CC=C4C=C(OC(C)=O)CCC4(C)C3CCC21C (stereo unspecified)', 'GI50', '24.3 µM (inactive)'),
  ('CCOC(=O)C1CC/C(=C(/C#N)C(=O)OC)N1 (stereo unspecified)', 'GI50', '> 100 µM (inactive)'),
  ('COc1ccc2c(=O)cc(-c3ccc(OC)c(OC)c3OC)oc2c1', 'GI50', '> 100 µM (inactive)'),
  ('NCCCCC(NC(=O)C(N)Cc1ccc(O)cc1)C(=O)NC(CCCCN)C(=O)NC(CCCCN)C(=O)ON1C(=O)CCC1=O (stereo unspecified) (H-YKKK-OSu; configuration not given here)', 'GI50', '> 100 µM (inactive)'),
  ('CC(C)(C)C(=O)CC1=Nc2ccccc2SC1(O)CC(=O)C(C)(C)C (stereo unspecified)', 'GI50', '64 µM (inactive)'),
  ('C=C[C@@H]1OC(=O)O[C@H]1CO', 'GI50', '> 100 µM (inactive)'),
  ('C=C(C)CC1(O[Si](C)(C)C)C(=O)C(OCC)=C1OCC (stereo unspecified)', 'GI50', '> 100 µM (inactive)'),
  ('CC(C)(C=O)CC(C#N)/C(=N\NC(N)=O)C(=O)Nc1ccccc1C(N)=O (stereo unspecified)', 'GI50', '> 100 µM (inactive)'),
  ('N#CC(NCCc1ccccc1)c1ccc(C(C#N)NCCc2ccccc2)cc1 (stereo unspecified)', 'GI50', '> 100 µM (inactive)'),
  ('O=C1/C(=C/c2ccc(C(=O)O)cc2)CNC/C1=C\c1ccc(C(=O)O)cc1', 'GI50', '> 100 µM (inactive)'),
  ('O=C1OC(c2ccccc2)=N/C1=C/NC(CO)C(=O)O (stereo unspecified)', 'GI50', '> 100 µM (inactive)'),
  ('CCc1ccc(Nc2cc(=O)[nH]c(SCc3ccccc3)n2)cc1', 'GI50', '> 100 µM (inactive)'),
  ('CCC1(CCSC(=N)N)C(=O)NC(=O)NC1=O', 'GI50', '> 100 µM (inactive)'),
  ('O=C(NCCCCCCNC(=O)n1cc(F)c(=O)[nH]c1=O)NCCCOCCOCCOCCOCCOCCOCCOCCOCCOCCOCCOCCOCCOCCOCCOCCOCCOCCOCCOCCOCCOCCCNC(=O)C(O)C(O)C(OC1OC(CO)C(O)C(O)C1O)C(O)CO (stereo unspecified)', 'GI50', '> 100 µM (inactive)'),
  ('NC(=O)C(=CN1CC(=O)NC1=S)C(N)=O', 'GI50', '> 100 µM (inactive)'),
  ('CC(C)(C)OC(=O)N1C(c2cccnc2)=CC[C@H]2C3CC=C(c4cccnc4)[C@@]3(C)CC[C@@H]21 (stereo partly specified)', 'GI50', '4.22 µM (inactive)'),
  ('CC12CCC3c4cc(Br)c(O)c(Br)c4CCC3C1CCC2O (stereo unspecified)', 'GI50', '19.8 µM (inactive)'),
  ('COc1ccc(N2C(=O)CC(=O)N(C(=O)CCCCCCCCC(=O)N3C(=O)CC(=O)N(c4ccc(OC)cc4)C3=S)C2=S)cc1', 'GI50', '> 100 µM (inactive)'),
  ('CC1(C)OC2COC(c3n[nH]c4c(=O)[nH]c(=O)[nH]c34)C2O1 (stereo unspecified)', 'GI50', '> 100 µM (inactive)'),
  ('CCCC(=O)Nc1cc(/C=C/C(=O)N2CC(CCl)c3c2cc([N+](=O)[O-])c2ccccc32)n(C)c1 (stereo unspecified)', 'GI50', '> 100 µM (inactive)'),
  ('Cc1cn(C2CC(O)C(COC(N)=O)O2)c(=O)[nH]c1=O (stereo unspecified)', 'GI50', '> 100 µM (inactive)'),
  ('COC(=O)c1oc([N+](=O)[O-])c(Cl)c1Cl', 'GI50', '7.36 µM (inactive)'),
  ('COC(=O)C(CC(C)C)NC(=O)CNC(=O)C(Cc1ccc(OCc2ccccc2)cc1)NC(=O)C(COCc1ccccc1)NC(=O)OC(C)(C)C (stereo unspecified) (Boc-S(Bn)Y(Bn)GL-OMe; configuration not given here)', 'GI50', '> 100 µM (inactive)'),
  ('Oc1ccc2ccccc2c1OCc1nnc(CCCCCCCCc2nnc(COc3c(O)ccc4ccccc34)n2Nc2ccccc2)n1Nc1ccccc1', 'GI50', '22.6 µM (inactive)'),
  ('CC(=O)N1C(=O)/C(=C\C(=O)c2ccc(Cl)cc2)c2ccccc21', 'GI50', '15.6 µM (inactive)'),
  ('CCOC(=O)C1(Cc2ccccc2)C=CN(C(=O)c2ccccc2)C=C1', 'GI50', '28.4 µM (inactive)');
